# TESTED_ON: T1, MADYLT
# T1 chain: MADYLT
The following proteins are listed with their measured Specific activity (unit/mg) values.
State the answer as a number, implicitly in unit/mg.

// solved cases for Specific activity (unit/mg) follow
Inquiry: Returns the measured Specific activity (unit/mg) for the input protein. Input: MetAP-GTG (protein) AISIKTPEDIEKMRVAGRLAAEVLEMIEPYVKPGVSTGELDRICNDYIVNEQHAVSACLGYHGYPKSVCISINEVVCHGIPDDAKLLKDGDIVNIDVTVIKDGFHGDTSKMFIVGKPTIMGERLCRITQESLYLALRMVKPGINLREIGAAIQKFVEAEGFSVVREGCGHGIGRGFHEEPQVLHYDSRETNVVLKPGMTFTIEPTVNAGKKEIRTMKDGWTVKTKDRSLSAGYEHTIVVTDNGCEILTLRKDDTIPAIISHDE
Reply text: 2.5

Inquiry: Record request: Specific activity (unit/mg) value, item MetAP-M206T-Q233G (protein) AISIKTPEDIEKMRVAGRLAAEVLEMIEPYVKPGVSTGELDRICNDYIVNEQHAVSACLGYHGYPKSVCISINEVVCHGIPDDAKLLKDGDIVNIDVTVIKDGFHGDTSKMFIVGKPTIMGERLCRITQESLYLALRMVKPGINLREIGAAIQKFVEAEGFSVVREYCGHGIGRGFHEEPQVLHYDSRETNVVLKPGMTFTIEPTVNAGKKEIRTMKDGWTVKTKDRSLSAGYEHTIVVTDNGCEILTLRKDDTIPAIISHDE
Reply text: 116

Inquiry: Requested field: Specific activity (unit/mg). Item: MetAP-M206T-Q233T (protein) AISIKTPEDIEKMRVAGRLAAEVLEMIEPYVKPGVSTGELDRICNDYIVNEQHAVSACLGYHGYPKSVCISINEVVCHGIPDDAKLLKDGDIVNIDVTVIKDGFHGDTSKMFIVGKPTIMGERLCRITQESLYLALRMVKPGINLREIGAAIQKFVEAEGFSVVREYCGHGIGRGFHEEPQVLHYDSRETNVVLKPGMTFTIEPTVNAGKKEIRTMKDGWTVKTKDRSLSATYEHTIVVTDNGCEILTLRKDDTIPAIISHDE
Reply text: 0.12

Query protein follows.
Inquiry: Find the recorded Specific activity (unit/mg) belonging to MetAP-M206G-Q233G (protein) AISIKTPEDIEKMRVAGRLAAEVLEMIEPYVKPGVSTGELDRICNDYIVNEQHAVSACLGYHGYPKSVCISINEVVCHGIPDDAKLLKDGDIVNIDVTVIKDGFHGDTSKMFIVGKPTIMGERLCRITQESLYLALRMVKPGINLREIGAAIQKFVEAEGFSVVREYCGHGIGRGFHEEPQVLHYDSRETNVVLKPGMTFTIEPGVNAGKKEIRTMKDGWTVKTKDRSLSAGYEHTIVVTDNGCEILTLRKDDTIPAIISHDE and report it.
Reply text: 0.29
